experiment: ABTS scavenging assay; format: biochemical; conditions: 125 μM, n = 3
measured metric: % ABTS scavenging mean ± SEM (%)
Quick reminder: number only, in %, skip the unit.

Consider the reported % ABTS scavenging mean ± SEM for these compounds:
# compound, quantity unit, number
measured = [
    ("O=C1O[C@H]([C@@H](O)CO)C(O)=C1O [ascorbic acid, reference compound]", "%", 51.89),
    ("Cc1ccc(N2C(=O)c3ccccc3C2=O)c(C)c1", "%", 46.11),
    ("O=C1c2ccccc2C(=O)N1c1ccc(Br)cc1", "%", 34.11),
]

From here, focus on the item given below.
Data request: For the compound O=C1c2ccccc2C(=O)N1c1ccc(C(F)(F)F)cc1 , what % ABTS scavenging mean ± SEM is on record?
Data returned: 42.10

Every entry's value here was drawn from paper PMC9979339.
